Field: IC50. System: UniProtKB Q9UGL1. Provenance: assorted publications.

Please review the entries below; each comes with its answer.
compound: Cn1cnc(-c2cc(C(=O)O)ccn2)c1-c1cccc(CO)c1
reported: 100 to 1000 nM
//
compound: CCc1ccc(COc2ccnn2-c2cc(C(=O)O)ccn2)c(Cl)c1
reported: 100 to 1000 nM

Shifting focus to the compound that follows.
Hey, UniProtKB Q9UGL1 data for O=C(O)c1ccncc1NCC1COc2ccccc2O1 (stereo not drawn) : IC50 came out at ≤ 100 nM

====

Note to self: these molecules have IC50 reported for Lysine-specific demethylase 5B (Homo sapiens) in various publications.

A selection of reference data follows.
molecule: O=C(O)c1c(NCc2cccc3c2CNCC3)ccc2nccn12
reported: > 1000 nM
//
molecule: CNC(=O)c1cccc(-c2c(-c3cc(C(=O)O)ccn3)ncn2C)c1
reported: 100 to 1000 nM
//
molecule: C[C@H](c1ccccc1)n1cc(Oc2nc(O)c3ccncc3n2)cn1
reported: ≤ 100 nM
//
molecule: C=CCN(CC=C)C(=O)[C@H](CCCCNC(=O)NC(C)(C)C)NCc1cc(C(=O)O)ccn1
reported: 250 to 2500 nM
//
molecule: O=C(O)c1ccnc(-n2nccc2OCc2ccc(F)c(F)c2)c1
reported: < 100 nM
//
molecule: CCc1cc(C)ccc1COc1ccnn1-c1cc(C(=O)O)ccn1
reported: 100 to 1000 nM
//
molecule: O=C(O)c1ccncc1NCc1cccc(C(F)(F)F)c1
reported: ≤ 100 nM
//
molecule: Cc1cccc(CNc2cnccc2C(=O)O)c1C1CC1
reported: ≤ 100 nM

The measured IC50 associated with O=C(NCCOc1nc(O)c2ccncc2n1)c1ccccc1 reads ≤ 100 nM

Sure, the documented IC50 for O=C(O)c1ccncc1Nc1nn(CCC(F)(F)F)c2ccc(F)cc12 is < 100 nM

For reference, reported IC50 for O=C(O)c1ccnc(-c2cn(CCN3Cc4ccc(C(F)(F)F)cc4C3)cn2)c1 stands at ≤ 100 nM

Notebook: C=CCN(CC=C)C(=O)[C@@H](CC(=O)NCC1CC1)NCc1cc(C(=O)O)ccn1 , IC50 read as 250 to 2500 nM

Given item COCCn1cc(Oc2nc(O)c3ccncc3n2)cn1 , the value recorded as its IC50 is ≤ 100 nM

====

pIC50: −log10 of the molar value.
Assay read-out pIC50 on Lysine-specific demethylase 5B (Homo sapiens, UniProt Q9UGL1); records merged from the literature.

Here is how some compounds turned out for pIC50.
compound: COc1cc(Cl)ccc1COc1ccnn1-c1cc(C(=O)O)ccn1
pIC50: > 7.00

compound: Oc1nc(OCCOCC(F)(F)F)nc2cnccc12
pIC50: 6.00 to 7.00

compound: Cn1cnc(-c2nccc3c(O)nc(OCC(F)F)nc23)c1
pIC50: ≥ 7.00

compound: Cn1cnc(-c2nccc3c(O)nc(OCc4cccc(Cl)c4Cl)nc23)c1
pIC50: ≥ 7.00

compound: O=C(O)c1ccncc1NCC1CCOc2ccccc21 (centres unmarked)
pIC50: ≥ 7.00

compound: COc1cc(Cl)ccc1CNc1ccc2ncc(C(=O)O)n2c1
pIC50: < 6.00

The reported value for CCN(CC)C(=O)CCN(CCNC(C)=O)Cc1cc(C(=O)O)ccn1 in terms of pIC50 is 5.60 to 6.60

Query CC(Oc1cc(F)ccc1COc1ccnn1-c1cc(C(=O)O)ccn1)c1ccccc1 (centres unmarked) yields pIC50 of 6.00 to 7.00

====

// cross-study collection: pIC50 for Lysine-specific demethylase 5B (Homo sapiens)
pIC50: −log10 of the molar value.

Consider the reported pIC50 for these compounds:
compound: Cc1ccc(COc2ccnn2-c2cc(C(=O)O)ccn2)c(C#N)c1
measure.name: pIC50
reported: > 7.00
--
compound: O=C(O)c1ccncc1Nc1nn(CCN2CCCC2)c2ccc(F)cc12
measure.name: pIC50
reported: > 7.00
--
compound: CC(=O)N(C)c1cccc(CNc2ccc3nccn3c2C(=O)O)c1
measure.name: pIC50
reported: 6.00 to 6.30
--
compound: CCc1ccc(COc2ccnn2-c2cc(C(=O)O)ccn2)cc1
measure.name: pIC50
reported: > 7.00
--
compound: COc1cc(C)ccc1-c1ccc2ncc(C(=O)O)n2c1
measure.name: pIC50
reported: < 6.00
--
compound: O=C(O)c1ccncc1Nc1nn(CC2CCC2)c2ccc(F)cc12
measure.name: pIC50
reported: > 7.00
--
compound: O=C(O)c1ccncc1Nc1nn(CC2CCCC2)c2ccc(F)cc12
measure.name: pIC50
reported: > 7.00
--
compound: Cc1ccc(-c2ccnn2-c2cc(C(=O)O)ccn2)cc1O
measure.name: pIC50
reported: > 7.00
--
compound: O=C(O)c1ccnc(-n2nccc2OCc2ccc(Cl)cc2/C=C/c2ccc(F)cc2)c1
measure.name: pIC50
reported: 6.00 to 7.00
--
compound: CC(C)Cn1nc(Nc2cnccc2C(=O)NC#N)c2cc(F)ccc21
measure.name: pIC50
reported: > 7.00

Field pIC50 (Lysine-specific demethylase 5B (Homo sapiens)), entry Cc1c(F)cccc1CNc1ccc2nccn2c1C(=O)O : < 6.00

Recorded pIC50 for Cn1cnc(-c2cc(C(=O)O)ccn2)c1-c1ccc(F)cc1 on Lysine-specific demethylase 5B (Homo sapiens) was ≥ 7.00

Lab note: compound O=C(O)c1c(NCc2c(Cl)cccc2Cl)ccc2nccn12 tested on Lysine-specific demethylase 5B (Homo sapiens); recorded pIC50 was < 6.00

====

pIC50: −log10 of the molar value.
Across several publications, the following pIC50 results were reported for Lysine-specific demethylase 5B (Homo sapiens).

Solved entries (count: 6):
compound: Cc1nn(C)c2cc(Oc3nc(O)c4ccnc(-c5cn(C)cn5)c4n3)ccc12
experimental.target: Lysine-specific demethylase 5B (Homo sapiens)
measure.name: pIC50
reported: ≥ 7.00
//
compound: C[C@H](c1ccccc1)N1CC[C@@H](CNCc2cc(C(=O)O)ccn2)C1=O
experimental.target: Lysine-specific demethylase 5B (Homo sapiens)
measure.name: pIC50
reported: > 6.60
//
compound: CN(C)CCn1cnc(-c2cc(C(=O)O)ccn2)c1-c1ccc(Cl)c(F)c1
experimental.target: Lysine-specific demethylase 5B (Homo sapiens)
measure.name: pIC50
reported: ≥ 7.00
//
compound: O=C(O)c1ccnc(-c2cn(CCNCc3ccccc3C(F)(F)F)cn2)c1
experimental.target: Lysine-specific demethylase 5B (Homo sapiens)
measure.name: pIC50
reported: ≥ 7.00
//
compound: C=CCN(CC=C)C(=O)[C@@H](CCCCNCCC)NCc1cc(C(=O)O)ccn1
experimental.target: Lysine-specific demethylase 5B (Homo sapiens)
measure.name: pIC50
reported: < 5.60
//
compound: Oc1nc(OC2CCc3ccccc32)nc2cnccc12 (centres unmarked)
experimental.target: Lysine-specific demethylase 5B (Homo sapiens)
measure.name: pIC50
reported: 5.00 to 6.00

// compound O=C(O)c1ccnc(-n2nccc2OCc2ccc3cn[nH]c3c2)c1 , assay Lysine-specific demethylase 5B (Homo sapiens), pIC50 value: 6.00 to 7.00

The compound Oc1nc(Oc2cnn(C3CCCN(c4ccc(F)cc4)C3)c2)nc2cnccc12 (stereo in doubt) on Lysine-specific demethylase 5B (Homo sapiens): pIC50 was ≥ 7.00

Value sought: pIC50, system Lysine-specific demethylase 5B (Homo sapiens), item CC(O)c1ccn2c(C(=O)O)cnc2c1 (centres unmarked) . Result: < 6.00

Lysine-specific demethylase 5B (Homo sapiens) assay, compound O=C(O)c1ccnc(-n2nccc2OCc2ccc(C3CC3)c(F)c2)c1 , recorded pIC50 = > 7.00

====

Assembled from different publications: IC50 for Lysine-specific demethylase 5B (Homo sapiens).

Recorded results for 6 compounds are shown here.
compound: CC(Cc1ccccc1)Oc1nc(O)c2ccncc2n1 (centres unmarked)
IC50: 1000 to 10000 nM

compound: Cc1ccc(CNc2ccc3nccn3c2C(=O)O)c(F)c1
IC50: > 1000 nM

compound: O=C(O)c1ccncc1NCc1ccccc1Nc1ccccc1
IC50: ≤ 100 nM

compound: COc1cc(Cl)ccc1COc1cc(C(=O)O)n2ccnc2c1
IC50: > 1000 nM

compound: O=C(O)c1ccncc1Nc1nn(C2CCOCC2)c2ccc(F)cc12
IC50: < 100 nM

compound: Oc1nc(OCc2ccccc2C(F)(F)F)nc2cnccc12
IC50: 1000 to 10000 nM

Just so you know, measured IC50 for O=C(O)c1c(NCc2ccc3c(c2)CCO3)ccc2nccn12 came out at > 1000 nM

Reported IC50 for N#Cc1ccc(CNc2cnccc2C(=O)O)cc1 was ≤ 100 nM

====

Compiled literature IC50, tested on Lysine-specific demethylase 5B (Homo sapiens).

Record for CC(O)Cn1nc(Nc2cnccc2C(=O)O)c2cc(F)ccc21 (stereo not drawn) under target or system Lysine-specific demethylase 5B (Homo sapiens): IC50 reported as < 100 nM

Item Cc1cc(Cl)ccc1CNc1cnccc1C(=O)O ; assay system Lysine-specific demethylase 5B (Homo sapiens); IC50 reported as ≤ 100 nM

Record for O=C(O)c1ccncc1NCC1CCCc2ccc(F)cc21 (stereo not drawn) under target or system Lysine-specific demethylase 5B (Homo sapiens): IC50 reported as ≤ 100 nM

Result for O=C(O)c1ccnc(-n2nccc2OCc2ccc(F)cc2)c1 , tested on Lysine-specific demethylase 5B (Homo sapiens), IC50: < 100 nM

Case CCc1ccc(COc2ccnn2-c2cc(C(=O)O)ccn2)cc1F , Lysine-specific demethylase 5B (Homo sapiens), IC50 recorded as < 100 nM

Item: O=C(O)c1c(NCc2ccccc2OC(F)(F)F)ccc2nccn12 | System: Lysine-specific demethylase 5B (Homo sapiens) | IC50: 500 to 1000 nM
